- TARGET OF ASSAY: COX-1 (Homo sapiens)
- Construct: host or cells: U-937 human lymphoma cells
- Sequence (P23219 24-599): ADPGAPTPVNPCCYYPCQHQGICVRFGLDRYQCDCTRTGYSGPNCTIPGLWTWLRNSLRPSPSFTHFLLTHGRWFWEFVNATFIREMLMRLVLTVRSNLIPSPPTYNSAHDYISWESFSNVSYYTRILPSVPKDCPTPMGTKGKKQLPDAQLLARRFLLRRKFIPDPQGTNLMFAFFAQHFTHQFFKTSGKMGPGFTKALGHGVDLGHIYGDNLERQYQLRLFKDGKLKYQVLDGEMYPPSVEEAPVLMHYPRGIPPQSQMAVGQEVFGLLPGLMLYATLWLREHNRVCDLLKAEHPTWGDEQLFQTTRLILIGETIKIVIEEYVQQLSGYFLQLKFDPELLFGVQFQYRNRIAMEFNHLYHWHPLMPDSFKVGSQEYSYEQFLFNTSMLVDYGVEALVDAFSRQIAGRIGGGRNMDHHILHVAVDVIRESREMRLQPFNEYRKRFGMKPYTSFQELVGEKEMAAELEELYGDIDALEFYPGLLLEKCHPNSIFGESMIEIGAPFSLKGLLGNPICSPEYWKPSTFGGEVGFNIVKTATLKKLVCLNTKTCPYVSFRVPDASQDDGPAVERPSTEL
- ASSAY OVERVIEW: Assay for the COX-1 inhibitory activity using U-937
- Format: cell-based
- CONDITION PARAMETERS: 1 μM test compound; PGE2 inhibition in U-937 human lymphoma cells vs DMSO control; read-out: Cyclooxygenase (COX) Inhibition (%) COX-1 (1 μM)
QUANTITY NAME: inhibition at 1 µM (%)

CS(=O)(=O)c1ccc(-n2nc(C(F)(F)F)nc2-c2cc3ccccc3[nH]2)cc1: 26.3
CS(=O)(=O)c1ccc(-n2nc(C(F)(F)F)nc2-c2ccc3ccccc3c2)cc1: 26.2

(I) CS(=O)(=O)c1ccc(-n2nc(C(F)(F)F)nc2-c2ccc3ccccc3c2)nc1
(II) CS(=O)(=O)c1ccc(-n2nc(C(F)(F)F)nc2-c2ccc3ccccc3n2)cc1
Req: Higher inhibition at 1 µM between I and II ? Answer by quoting the chosen item's label.
Resp: II

---

- TARGET OF ASSAY: COX-2 (Mus musculus)
- Construct: host or cells: RAW 264.7 cells, aspirin-pretreated, induced with interferon γ and LPS
- ASSAY OVERVIEW: Assay for the COX-2 inhibitory activity using RAW 264.7 cell line
- Type: cell-based
- CONDITION PARAMETERS: RAW264.7; 10 nM test compound; PGE2 in RAW 264.7 cells treated with interferon γ and LPS, 18 hours; read-out: Cyclooxygenase (COX) Inhibition (%) COX-2 (10 nM)
QUANTITY NAME: inhibition at 0.01 µM (%)

CS(=O)(=O)c1ccc(-n2nc(C(F)(F)F)nc2-c2ccc3ccccc3n2)cc1 [Example 15]: 5.42

(I) CS(=O)(=O)c1ccc(-n2nc(C(F)(F)F)nc2-c2cc3ccccc3[nH]2)cc1 [Example 12]
(II) NS(=O)(=O)c1ccc(-n2nc(C(F)(F)F)nc2-c2ccc3ccccc3c2)cc1 [Example 16]
Req: Which of these two has the smaller recorded inhibition at 0.01 µM: I or II ? Answer by quoting the chosen item's label.
Resp: I
(I: 5.67%, II: 16.3%)

---

- TARGET OF ASSAY: COX-1 (Homo sapiens)
- Construct: host or cells: U-937 human lymphoma cells
- ASSAY OVERVIEW: Assay for the COX-1 inhibitory activity using U-937
- Format: cell-based
- CONDITION PARAMETERS: 1 μM test compound; PGE2 inhibition in U-937 human lymphoma cells vs DMSO control; read-out: Cyclooxygenase (COX) Inhibition (%) COX-1 (1 μM)
QUANTITY NAME: inhibition at 1 µM (%)

NS(=O)(=O)c1ccc(-n2nc(C(F)(F)F)nc2-c2ccc3ccccc3c2)cc1: 32.9
Cn1cc(-c2nc(C(F)(F)F)nn2-c2ccc(S(C)(=O)=O)cc2)c2ccccc21: 21.3

(a) CS(=O)(=O)c1ccc(-n2nc(C(F)(F)F)nc2-c2cc3ccccc3o2)cc1
(b) Cn1c(-c2nc(C(F)(F)F)nn2-c2ccc(S(C)(=O)=O)cc2)cc2ccccc21
Req: Which of these two has the smaller recorded inhibition at 1 µM: a or b ? Answer by quoting the chosen item's label.
Resp: b

---

- TARGET OF ASSAY: COX-2 (Mus musculus, UniProt Q05769)
- Construct: host or cells: RAW 264.7 cells, aspirin-pretreated, induced with interferon γ and LPS
- Sequence (Q05769 18-604): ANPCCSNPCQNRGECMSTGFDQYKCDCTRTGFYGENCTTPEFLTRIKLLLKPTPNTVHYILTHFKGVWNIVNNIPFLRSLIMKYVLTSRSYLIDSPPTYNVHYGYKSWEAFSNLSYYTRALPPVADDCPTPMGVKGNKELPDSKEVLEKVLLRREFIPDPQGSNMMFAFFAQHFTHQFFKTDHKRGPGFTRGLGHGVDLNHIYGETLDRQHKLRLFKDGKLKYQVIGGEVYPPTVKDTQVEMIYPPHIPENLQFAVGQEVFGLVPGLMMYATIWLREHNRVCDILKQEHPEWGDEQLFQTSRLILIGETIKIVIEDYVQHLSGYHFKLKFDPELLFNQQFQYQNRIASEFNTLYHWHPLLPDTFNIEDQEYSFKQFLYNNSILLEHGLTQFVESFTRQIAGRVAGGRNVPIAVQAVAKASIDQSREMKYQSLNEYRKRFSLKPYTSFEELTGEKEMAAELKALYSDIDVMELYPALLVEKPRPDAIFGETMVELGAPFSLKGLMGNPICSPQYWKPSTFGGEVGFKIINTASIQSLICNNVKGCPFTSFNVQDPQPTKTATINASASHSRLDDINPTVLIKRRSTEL
- ASSAY OVERVIEW: Assay for the COX-2 inhibitory activity using RAW 264.7 cell line
- Format: cell-based
- CONDITION PARAMETERS: RAW264.7; 10 nM test compound; PGE2 in RAW 264.7 cells treated with interferon γ and LPS, 18 hours; read-out: Cyclooxygenase (COX) Inhibition (%) COX-2 (10 nM)
QUANTITY NAME: inhibition at 0.01 µM (%)

CS(=O)(=O)c1ccc(-n2nc(C(F)(F)F)nc2-c2ccc3ccccc3c2)nc1 [Example 17]: 23.3

(1) Cn1c(-c2nc(C(F)(F)F)nn2-c2ccc(S(C)(=O)=O)cc2)cc2ccccc21 [Example 13]
(2) Cn1cc(-c2nc(C(F)(F)F)nn2-c2ccc(S(C)(=O)=O)cc2)c2ccccc21 [Example 14]
(3) CS(=O)(=O)c1ccc(-n2nc(C(F)(F)F)nc2-c2ccc3ccccc3c2)cc1 [Example 10]
Req: Sort these compounds on inhibition at 0.01 µM so the largest reading comes first. Quick reminder: the answer is the labels in the order asked.
Resp: 1, 3, 2
(1: 25.7%, 3: 12.3%, 2: 6.02%)

# credit: patent US7230010B2
